target: GABAa receptor; test: Inhibition of 3H-RO15-1788 [3H-Flumazenil] binding to rat cortical tissue (GABAa receptor activity); conditions: 0.5 nM 3H-RO15-1788, 30 min at 4° C., pH 7.4
measure.name: IC50 (nM)

>  <line.notation>
O=C1c2c(c3ccccc3[nH]c2=O)C(=O)N1c1ccccc1F

>  <tested.on>
GABAa receptor

>  <IC50 (nM)>
700

$$$$

(A) O=C1c2c(c3ccccc3[nH]c2=O)C(=O)N1c1ccccc1
(B) O=C1c2c(c3ccccc3[nH]c2=O)CN1c1ccccc1
(C) COc1ccc(N2C(=O)c3c(c4ccccc4[nH]c3=O)C2=O)cc1
Put these in order: smallest IC50 first, largest last. Put the labels in the order asked and list them.
A, C, B
(A: 36 nM, C: 400 nM, B: 602 nM)

Hey, just so you know, these numbers are from patent US5243049A.
